assay_target: T1, human MSLN-FL-his protein (human, UniProt Q13421 296-580)
T1 construct: made in HEK293E cells, purified on nickel column; also called hMSLN-FL-his; human MSLN full-length protein; not shown: His tag
T1 sequence (Q13421 other isoform, or with tags, fused parts or gaps): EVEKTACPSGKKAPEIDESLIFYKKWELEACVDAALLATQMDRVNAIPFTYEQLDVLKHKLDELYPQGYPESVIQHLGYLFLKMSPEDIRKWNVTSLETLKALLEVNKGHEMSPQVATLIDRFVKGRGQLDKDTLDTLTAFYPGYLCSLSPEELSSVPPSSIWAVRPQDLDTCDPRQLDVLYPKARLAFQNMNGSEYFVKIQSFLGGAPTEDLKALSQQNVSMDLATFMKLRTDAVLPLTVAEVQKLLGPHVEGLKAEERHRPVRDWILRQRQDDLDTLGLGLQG
assay_procedure: competitive ELISA; row F2-56.12; note: test concentration or dose not given here
parameter_measured: competition rate (%)
Answer in %, number only, no unit symbol.

{"binder": "S009-F4-94.15 (antibody, human IgG1, kappa, V domains shown, human-murine chimeric antibody, human IgG1/kappa constant regions) VH: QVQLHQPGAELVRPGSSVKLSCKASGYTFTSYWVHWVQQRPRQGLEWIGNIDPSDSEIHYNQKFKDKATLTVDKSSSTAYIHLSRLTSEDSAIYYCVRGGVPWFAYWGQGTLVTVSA VL: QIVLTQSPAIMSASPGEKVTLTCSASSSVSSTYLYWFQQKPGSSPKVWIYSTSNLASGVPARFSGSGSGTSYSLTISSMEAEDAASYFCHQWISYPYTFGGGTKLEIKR", "competition rate (%)": 101}
{"binder": "S009-F2-56.12 (antibody, human IgG1, kappa, V domains shown, human-murine chimeric antibody, human IgG1/kappa constant regions) VH: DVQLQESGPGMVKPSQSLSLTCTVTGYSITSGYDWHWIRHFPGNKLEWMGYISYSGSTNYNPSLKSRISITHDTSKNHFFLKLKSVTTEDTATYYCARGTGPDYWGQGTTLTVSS VL: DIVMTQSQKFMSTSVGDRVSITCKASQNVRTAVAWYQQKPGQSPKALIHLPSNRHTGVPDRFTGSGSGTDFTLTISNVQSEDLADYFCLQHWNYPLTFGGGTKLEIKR", "competition rate (%)": 97}
{"binder": "S009-F6-76.1 (antibody, human IgG1, kappa, V domains shown, human-murine chimeric antibody, human IgG1/kappa constant regions) VH: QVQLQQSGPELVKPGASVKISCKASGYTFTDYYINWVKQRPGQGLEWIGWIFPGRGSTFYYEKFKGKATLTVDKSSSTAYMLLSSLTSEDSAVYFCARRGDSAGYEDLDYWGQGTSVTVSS VL: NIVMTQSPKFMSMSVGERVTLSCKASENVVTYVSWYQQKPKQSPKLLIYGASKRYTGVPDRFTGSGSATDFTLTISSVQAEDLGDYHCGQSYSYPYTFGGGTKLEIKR", "competition rate (%)": 99}

Would you kindly share the measured competition rate for S009-F6-62.5 (antibody, human IgG1, kappa, V domains shown, human-murine chimeric antibody, human IgG1/kappa constant regions) VH: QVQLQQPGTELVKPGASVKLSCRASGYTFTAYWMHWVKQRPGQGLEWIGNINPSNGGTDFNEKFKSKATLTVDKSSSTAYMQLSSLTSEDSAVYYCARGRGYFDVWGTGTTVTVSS VL: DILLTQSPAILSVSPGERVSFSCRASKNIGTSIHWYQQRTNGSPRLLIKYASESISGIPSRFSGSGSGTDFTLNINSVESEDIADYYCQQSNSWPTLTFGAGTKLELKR ?
-143
